Hey, just so you know, these numbers are from paper PMC9146374.

Tested on: A375 melanoma cell line
Assay: MTS assay of metabolic activity (cell viability), 48 h exposure, A375 cells
Assay type: cell-based, human
Conditions: Homo sapiens, A-375, 48 h, A375, 48 h, MTS; ± SEM
assay_readout: IC50 (µM)
Give the quantity in µM, number only.

A selection of reference data follows.
> print(dat)
                                   molecule  assay.readout  measured.number
1  C/C=C(/C=O)[C@@H](CC=O)CC(=O)OCCc1ccc(O)cc1           IC50               67
2  CC=C(C=O)C(CC=O)CC(=O)OCCc1ccc(O)c(O)c1 (stereo not drawn)           IC50              112

The measured IC50 that CN(C)/N=N/c1[nH]cnc1C(N)=O showed for A375 melanoma cell line is 362
